STUDY_TARGET: Peroxisome proliferator-activated receptor gamma (Homo sapiens) (UniProt P37231)
Sequence (P37231 whole entry, looked up): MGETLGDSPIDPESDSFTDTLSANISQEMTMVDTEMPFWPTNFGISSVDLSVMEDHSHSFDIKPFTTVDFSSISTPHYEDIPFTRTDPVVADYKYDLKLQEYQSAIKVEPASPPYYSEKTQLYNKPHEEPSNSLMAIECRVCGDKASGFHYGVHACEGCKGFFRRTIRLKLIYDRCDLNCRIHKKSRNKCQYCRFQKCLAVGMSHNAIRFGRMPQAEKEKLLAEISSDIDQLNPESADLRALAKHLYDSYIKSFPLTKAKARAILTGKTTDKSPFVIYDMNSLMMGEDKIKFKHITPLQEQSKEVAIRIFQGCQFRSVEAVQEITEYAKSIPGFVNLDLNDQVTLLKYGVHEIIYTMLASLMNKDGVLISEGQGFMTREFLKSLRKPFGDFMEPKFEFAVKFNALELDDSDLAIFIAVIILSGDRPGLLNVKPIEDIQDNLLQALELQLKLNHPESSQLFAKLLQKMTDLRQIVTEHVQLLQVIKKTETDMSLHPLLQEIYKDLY
TEST: ATG_PPARg_TRANS: Attagene TRANS-FACTORIAL HepG2 Assay for human Peroxisome Proliferator-activated Receptor-gamma (PPARg) (AID 2283007)
Records with an inconclusive call do not appear. Active and inactive are the calls of the source. Rule for the calls: active = hit-call score of the fitted dose curve at least 0.9, where 1 is the maximum; inconclusive = response in the unintended direction; inactive = score below 0.9.
Outcome codes: Yes (active), No (inactive)

• Cc1c([N+](=O)[O-])cc2c(c1[N+](=O)[O-])C(C)(C)CC2(C)C = No
• CC(Cl)(Cl)C(=O)O = No
• O=P(Oc1ccccc1)(Oc1ccccc1)Oc1ccccc1 = Yes
• Cc1ccc2c(c1N)C(=O)c1ccccc1C2=O = No
• CC(Cc1ccc(OCC(=O)O)cc1)NCC(O)c1csc(C(F)(F)F)n1 (centres undefined) = No
• CCOP(=O)(O)C(N)=O = No
• COP(=O)(CCC(=O)NCO)OC = No
• FC(F)(F)c1ccc(Cl)cc1 = No
• C/C(=N\NC(=O)Nc1cc(F)cc(F)c1)c1ncccc1C(=O)O = No
• CCCCc1ccc(O)cc1 = Yes
• Nc1ccc(Cl)cc1 = No
• CC(O)C#N (centres undefined) = No
• O=S(=O)(c1ccc(O)cc1)c1ccc(O)cc1 = Yes
• CCC1(c2ccccc2)C(=O)N=C(O)NC1=O (centres undefined) = No
• c1cc2c3c(cccc3c1)CC2 = No
• CC(O)C(F)(F)C(F)(F)F (centres undefined) = No
• CCOc1ccc(C(C)(C)COCc2cccc(Oc3ccccc3)c2)cc1 = No
• c1ccc2c(c1)Nc1ccccc1S2 = Yes
• O=[N+]([O-])c1cc(Cl)ccc1Cl = Yes
• CCOP(=S)(OCC)SCn1nnc2ccccc2c1=O = Yes
• CC(C)(C)N(NC(=O)c1ccc(Cl)cc1)C(=O)c1ccccc1 = No
• CNC(=O)Oc1ccc(N(C)C)c(C)c1 = No
• CCOC(=O)c1ccccc1N = No
• ClC1=C(Cl)C2(Cl)C3C(Cl)C(Cl)CC3C1(Cl)C2(Cl)Cl (centres undefined) = Yes
• CCOP(=S)(OCC)SCS(=O)(=O)CC = No
• Nc1cc2c3c(c1)C(c1ccccc1)=N[C@@H](NC(=O)c1cccnc1)C(=O)N3CC2 = Yes
• Oc1ccc(I)cc1 = No
• O=P(OCC(Br)CBr)(OCC(Br)CBr)OCC(Br)CBr (centres undefined) = Yes
• Cc1ccc(O)cc1C = No
• C=CC(=O)OCC(CC)(COC(=O)C=C)COC(=O)C=C = Yes
• Clc1ccc(Oc2ccccc2)cc1 = No
• O=C(CBr)OCc1ccccc1 = No
• Cc1cccc(N)c1 = No
• CCOP(=S)(S)OCC = No
• CCCN(CCC)c1c([N+](=O)[O-])cc(C(C)C)cc1[N+](=O)[O-] = No
• CCC(C)(C)c1ccc(O)cc1 = No
• CCOP(=S)(NC(C)C)Oc1ccccc1C(=O)OC(C)C (centres undefined) = Yes
• O=C(O)C(Cl)Cl = No
• Nc1ccc(Sc2ccc(N)cc2)cc1 = Yes
• CC(=O)c1ccc(-c2ccccc2)cc1 = No
• CCOP(=S)(Oc1ccc([N+](=O)[O-])cc1)c1ccccc1 (centres undefined) = No
• OCC(F)(F)OC(F)(F)C(F)(F)OC(F)(F)C(F)(F)OC(F)(F)CO = No
• CCOP(=S)(OCC)SCSc1ccc(Cl)cc1 = No
• CCCCN(CCCC)SN(C)C(=O)Oc1cccc2c1OC(C)(C)C2 = Yes
• N#Cc1cc([N+](=O)[O-])ccc1N = No
• CC(C)(C)c1ccc(O)cc1 = No
• Nc1ccc([N+](=O)[O-])cc1Cl = No
• CC(C)(C)c1ccccc1OP(=O)(Oc1ccccc1)Oc1ccccc1 = Yes
• CCCCC(CC)COP(=O)(Oc1ccccc1)Oc1ccccc1 (centres undefined) = Yes
• C=CC(=O)OCC(F)(F)C(F)F = Yes
• Nc1ccc2ccccc2c1 = No
• FC(F)(F)C(F)(C(F)(F)F)C(F)(F)C(F)(F)CC1CO1 (centres undefined) = No
• O=P1(N(CCCl)CCCl)NCCCO1 (centres undefined) = No
• O=c1[nH]c2ccccc2c(=O)o1 = No

Source listed as PubChem BioAssay (EPA / NIEHS).
